# measuredOn: PI3Kγ (Homo sapiens, UniProt P48736)
# Construct: HA
# Sequence (P48736 whole entry, species assumed): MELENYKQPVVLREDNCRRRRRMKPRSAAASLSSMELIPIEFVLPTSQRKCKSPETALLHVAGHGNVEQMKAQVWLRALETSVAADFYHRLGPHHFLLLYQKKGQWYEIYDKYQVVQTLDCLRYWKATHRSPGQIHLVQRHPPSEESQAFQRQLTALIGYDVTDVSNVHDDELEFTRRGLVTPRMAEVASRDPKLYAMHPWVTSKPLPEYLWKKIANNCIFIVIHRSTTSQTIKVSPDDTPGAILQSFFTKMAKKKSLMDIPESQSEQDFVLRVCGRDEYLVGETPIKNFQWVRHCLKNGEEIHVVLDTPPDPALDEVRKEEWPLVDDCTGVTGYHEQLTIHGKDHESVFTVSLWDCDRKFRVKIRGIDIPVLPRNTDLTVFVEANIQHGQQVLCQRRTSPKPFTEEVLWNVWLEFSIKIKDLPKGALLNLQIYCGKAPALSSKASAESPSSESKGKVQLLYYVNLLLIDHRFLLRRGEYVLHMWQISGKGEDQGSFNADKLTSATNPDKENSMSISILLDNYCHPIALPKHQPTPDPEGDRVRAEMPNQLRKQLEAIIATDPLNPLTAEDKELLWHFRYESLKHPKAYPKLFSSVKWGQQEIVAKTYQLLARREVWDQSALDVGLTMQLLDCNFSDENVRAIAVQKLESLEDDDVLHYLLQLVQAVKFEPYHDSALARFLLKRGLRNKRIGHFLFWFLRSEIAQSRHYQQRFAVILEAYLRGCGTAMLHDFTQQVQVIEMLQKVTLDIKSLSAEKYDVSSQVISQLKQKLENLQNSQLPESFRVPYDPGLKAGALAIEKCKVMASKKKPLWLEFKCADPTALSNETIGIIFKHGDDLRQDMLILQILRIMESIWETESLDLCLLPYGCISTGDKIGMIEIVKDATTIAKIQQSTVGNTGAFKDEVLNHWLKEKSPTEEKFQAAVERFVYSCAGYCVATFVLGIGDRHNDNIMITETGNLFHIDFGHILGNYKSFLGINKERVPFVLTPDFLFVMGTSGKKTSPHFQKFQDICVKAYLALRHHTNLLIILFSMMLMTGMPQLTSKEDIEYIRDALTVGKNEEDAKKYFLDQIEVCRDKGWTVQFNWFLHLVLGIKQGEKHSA
# Sequence (Q8WYR1 whole entry partner, species assumed): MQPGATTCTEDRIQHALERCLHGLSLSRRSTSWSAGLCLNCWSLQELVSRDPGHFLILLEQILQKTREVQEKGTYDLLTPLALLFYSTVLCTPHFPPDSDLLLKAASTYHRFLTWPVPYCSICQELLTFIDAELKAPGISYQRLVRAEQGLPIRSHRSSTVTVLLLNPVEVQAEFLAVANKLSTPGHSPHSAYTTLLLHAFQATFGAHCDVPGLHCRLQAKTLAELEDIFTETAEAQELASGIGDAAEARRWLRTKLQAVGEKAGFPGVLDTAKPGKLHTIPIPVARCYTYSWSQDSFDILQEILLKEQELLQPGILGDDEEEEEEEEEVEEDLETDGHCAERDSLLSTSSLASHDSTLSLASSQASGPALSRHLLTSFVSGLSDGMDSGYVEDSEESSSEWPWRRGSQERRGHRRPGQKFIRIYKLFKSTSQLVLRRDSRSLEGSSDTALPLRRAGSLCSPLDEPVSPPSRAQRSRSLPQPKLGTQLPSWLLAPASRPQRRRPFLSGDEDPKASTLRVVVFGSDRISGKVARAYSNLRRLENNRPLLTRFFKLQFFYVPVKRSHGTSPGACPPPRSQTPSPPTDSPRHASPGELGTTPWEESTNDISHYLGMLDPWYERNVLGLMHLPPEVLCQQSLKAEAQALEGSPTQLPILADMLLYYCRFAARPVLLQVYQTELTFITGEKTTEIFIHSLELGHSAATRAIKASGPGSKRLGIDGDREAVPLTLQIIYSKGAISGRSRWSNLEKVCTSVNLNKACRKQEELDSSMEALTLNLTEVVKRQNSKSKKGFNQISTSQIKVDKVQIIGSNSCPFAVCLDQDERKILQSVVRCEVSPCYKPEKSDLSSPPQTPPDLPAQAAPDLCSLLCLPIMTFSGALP
# testDetails: PI3Kγ in vitro kinase assay (32P-ATP, PIP2 lipid micelles, filter plate)
# conditionInfo: purified recombinant p101/p110γ protein with G protein β1/γ2 subunits; 20 μM ATP; 25 μM PIP2; 20 minutes at room temperature
pIC50: −log10 of the molar value.
assayReadout: pIC50

{"columns": ["compound", "assayReadout", "obsValue"],
 "data": [
  ["COc1cc2c(Sc3ccc(C(=O)O)cc3)c(C(=O)Nc3nnn[nH]3)sc2cc1C [Example 55]", "pIC50", 6.58],
  ["COC(=O)Cc1ccc(Sc2c(C(=O)Nc3nnn[nH]3)sc3cc(OC)c(OC)cc23)cc1 [Example 49]", "pIC50", 5.89],
  ["COc1cccc(Sc2c(C(=O)Nc3nnn[nH]3)sc3cc(C)c(OC)cc23)c1 [Example 34]", "pIC50", 6.68],
  ["COc1ccc2sc(C(=O)Nc3nnn[nH]3)c(Sc3cccc(Cl)c3)c2c1 [Example 21]", "pIC50", 5.37],
  ["CCOc1ccc2sc(C(=O)Nc3nnn[nH]3)c(Sc3ccc(CCC(=O)O)cc3)c2c1 [Example 64]", "pIC50", 5.44]
]}

P. COc1cc2c(Sc3ccc(O)cc3)c(C(=O)Nc3nnn[nH]3)sc2cc1C [Example 30]
Q. COc1cc2c(Sc3ccccc3)c(C(=O)Nc3nnn[nH]3)sc2cc1C [Example 2]
-- ask Which gives the smaller pIC50 number: P or Q ? Refer to your chosen item by its label in the answer.
-- reply P
(P: 6.20, Q: 6.75)
